Source: the Immune Epitope Database (IEDB)

Target: HLA-A*24:03
Experiment: IEDB peptide-MHC binding, purified MHC/competitive/fluorescence; filed as Kd, often an IC50 or EC50 that approximates it; bounds were set here for any values at or beyond the usual limits of such assays
Conditions: source organism: Rickettsia akari str. Hartford
READOUT_NAME: Kd

Exam item: If you can, please state the reported Kd value of `FTARIIIFS` .
Marked response: ≥ 20 µM

###

Target: HLA-A*02:16
Assay: IEDB peptide-MHC binding, purified MHC/competitive/fluorescence; filed as Kd, often an IC50 or EC50 that approximates it; bounds were set here for any values at or beyond the usual limits of such assays
Settings: source organism: Plesiomonas shigelloides
READOUT_NAME: Kd

Exam item: # get_value(readout= Kd, system= HLA-A*02:16) for `LLFRMILNY`
Marked response: ≥ 20 µM

###

Target: HLA-A*26:01
Assay: IEDB peptide-MHC binding, purified MHC/direct/fluorescence; filed as Kd, often an IC50 or EC50 that approximates it; bounds were set here for any values at or beyond the usual limits of such assays
Settings: source organism: Salmonella enterica subsp. enterica serovar Typhimurium str. LT2
pKd: −log10 of the molar value.
READOUT_NAME: pKd

Exam item: If you can, please state the reported pKd value of `FKYDSTKPL` .
Marked response: ≤ 4.70

###

Biological target: HLA-A*02:03
Test: IEDB peptide-MHC binding, purified MHC/direct/fluorescence; filed as Kd, often an IC50 or EC50 that approximates it; bounds were set here for any values at or beyond the usual limits of such assays
Conditions: source organism: Mycobacterium tuberculosis str. Haarlem
pKd: −log10 of the molar value.
READOUT_NAME: pKd

Exam item: If you can, please state the reported pKd value of `MAVTAAPYI` .
Marked response: ≤ 4.70

###

Biological target: HLA-A*03:01
Test: IEDB peptide-MHC binding, purified MHC/competitive/fluorescence; filed as Kd, often an IC50 or EC50 that approximates it; bounds were set here for any values at or beyond the usual limits of such assays
Conditions: source organism: Corynebacterium glutamicum ATCC 13032
pKd: −log10 of the molar value.
READOUT_NAME: pKd

Exam item: If you can, please state the reported pKd value of `HLPELIWRS` .
Marked response: ≤ 4.70

###

Molecular target: HLA-A*69:01
Test: IEDB peptide-MHC binding, purified MHC/direct/fluorescence; filed as Kd, often an IC50 or EC50 that approximates it; bounds were set here for any values at or beyond the usual limits of such assays
Settings: source organism: Salmonella enterica subsp. enterica serovar Typhimurium str. LT2
pKd: −log10 of the molar value.
READOUT_NAME: pKd

Exam item: If you can, please state the reported pKd value of `FKYDSTKPL` .
Marked response: ≤ 4.70

###

Molecular target: HLA-A*02:01
Test: IEDB peptide-MHC binding, purified MHC/competitive/fluorescence; filed as Kd, often an IC50 or EC50 that approximates it; bounds were set here for any values at or beyond the usual limits of such assays
Conditions: source organism: Human immunodeficiency virus 1
Assignment: determine reported pKd for the given sequences.
Answers are plain numbers, as −log10 of the molar value.

Exam item: If you can, please state the reported pKd value of `LFNTIATLY` .
Marked response: 5.97

# input for lookup
Exam item: If you can, please state the reported pKd value of `KLKSLYNTV` .
Marked response: 7.58

###

Biological target: HLA-B*48:01
Test: IEDB peptide-MHC binding, purified MHC/direct/fluorescence; filed as Kd, often an IC50 or EC50 that approximates it; bounds were set here for any values at or beyond the usual limits of such assays
Details: source organism: Marburg virus - Musoke, Kenya, 1980
pKd: −log10 of the molar value.
READOUT_NAME: pKd

Exam item: # get_value(readout= pKd, system= HLA-B*48:01) for `KLDFIRNTK`
Marked response: ≤ 4.70

###

Biological target: HLA-A*02:06
Test: IEDB peptide-MHC binding, purified MHC/competitive/radioactivity; filed as Kd, often an IC50 or EC50 that approximates it; bounds were set here for any values at or beyond the usual limits of such assays
Conditions: source organism: Lassa virus Josiah
READOUT_NAME: pKd
Answers are plain numbers, as −log10 of the molar value.

Exam item: If you can, please state the reported pKd value of `LNISGYNFSL` .
Marked response: 6.38

###

Target: HLA-A*26:01
Assay: IEDB peptide-MHC binding, purified MHC/direct/fluorescence; filed as Kd, often an IC50 or EC50 that approximates it; bounds were set here for any values at or beyond the usual limits of such assays
Conditions: source organism: Rickettsia felis
READOUT_NAME: Kd

Exam item: If you can, please state the reported Kd value of `GSFKEYVFW` .
Marked response: ≥ 20 µM

###

Molecular target: HLA-B*46:01
Experiment: IEDB peptide-MHC binding, purified MHC/competitive/fluorescence; filed as Kd, often an IC50 or EC50 that approximates it; bounds were set here for any values at or beyond the usual limits of such assays
Conditions: source organism: Cryptosporidium parvum Iowa II
READOUT_NAME: Kd

Exam item: If you can, please state the reported Kd value of `FTWQHNYYL` .
Marked response: ≥ 20 µM

###

Assignment: determine reported pKd for the given sequences.
Biological target: HLA-A*01:01
Test: IEDB peptide-MHC binding, purified MHC/direct/fluorescence; filed as Kd, often an IC50 or EC50 that approximates it; bounds were set here for any values at or beyond the usual limits of such assays
Settings: source organism: Campylobacter jejuni
pKd: −log10 of the molar value.

Exam item: If you can, please state the reported pKd value of `VFKVKLHEI` .
Marked response: ≤ 4.70

# input for lookup
Exam item: If you can, please state the reported pKd value of `VKKLWGHLP` .
Marked response: ≤ 4.70

###

Molecular target: HLA-B*57:01
Test: IEDB peptide-MHC binding, purified MHC/direct/fluorescence; filed as Kd, often an IC50 or EC50 that approximates it; bounds were set here for any values at or beyond the usual limits of such assays
Conditions: source organism: Listeria monocytogenes
READOUT_NAME: Kd

Exam item: If you can, please state the reported Kd value of `FSIMIYFTF` .
Marked response: ≥ 20 µM

###

Target: HLA-B*40:01
Assay: IEDB peptide-MHC binding, purified MHC/direct/fluorescence; filed as Kd, often an IC50 or EC50 that approximates it; bounds were set here for any values at or beyond the usual limits of such assays
Conditions: source organism: Camelpox virus M-96
READOUT_NAME: Kd (µM)
Numbers only, in µM.

Exam item: # get_value(readout= Kd, system= HLA-B*40:01) for `TESDAIRTL`
Marked response: 0.0225

###

Biological target: HLA-B*15:09
Assay: IEDB peptide-MHC binding, purified MHC/direct/fluorescence; filed as Kd, often an IC50 or EC50 that approximates it; bounds were set here for any values at or beyond the usual limits of such assays
Details: source organism: Giardia lamblia ATCC 50803
READOUT_NAME: Kd

Exam item: If you can, please state the reported Kd value of `MIYELCTFR` .
Marked response: ≥ 20 µM

###

Biological target: HLA-C*03:03
Test: IEDB peptide-MHC binding, purified MHC/direct/fluorescence; filed as Kd, often an IC50 or EC50 that approximates it; bounds were set here for any values at or beyond the usual limits of such assays
Conditions: source organism: Orthohantavirus khabarovskense
READOUT_NAME: pKd
Give bare numbers, as −log10 of the molar value.

Exam item: If you can, please state the reported pKd value of `FSLPSSSSY` .
Marked response: 7.55

###

Target: HLA-B*15:01
Test: IEDB peptide-MHC binding, purified MHC/direct/fluorescence; filed as Kd, often an IC50 or EC50 that approximates it; bounds were set here for any values at or beyond the usual limits of such assays
Conditions: source organism: Salmonella enterica subsp. enterica serovar Typhimurium
READOUT_NAME: Kd (µM)
Give bare numbers, in µM.

Exam item: If you can, please state the reported Kd value of `YQRPFGGQS` .
Marked response: 3.71

###

Molecular target: HLA-B*44:02
Test: IEDB peptide-MHC binding, purified MHC/competitive/radioactivity; filed as Kd, often an IC50 or EC50 that approximates it; bounds were set here for any values at or beyond the usual limits of such assays
Conditions: source organism: Dengue virus 2 Jamaica/1409/1983
READOUT_NAME: pKd
Answers are plain numbers, as −log10 of the molar value.

Exam item: If you can, please state the reported pKd value of `AEPPFGDSYI` .
Marked response: 6.36

New cases:
Exam item: If you can, please state the reported pKd value of `REEEEAGVLW` .
Marked response: 7.29

###

Target: HLA-B*15:01
Assay: IEDB peptide-MHC binding, purified MHC/direct/fluorescence; filed as Kd, often an IC50 or EC50 that approximates it; bounds were set here for any values at or beyond the usual limits of such assays
Conditions: source organism: Influenza A virus (A/turkey/Minnesota/1200/1980(H7N3))
READOUT_NAME: Kd

Exam item: # get_value(readout= Kd, system= HLA-B*15:01) for `VTTEVAFGL`
Marked response: ≥ 20 µM
